Where do the numbers come from? From paper PMC5758648.

As shown below, each of these compounds has a reported pIC50 value.
Tested on: human glioma SHG44 cells
ASSAY_OVERVIEW: SRB antiproliferative assay, SHG44 glioma cells
Format: cell-based
REPORTED_CONDITIONS: Homo sapiens, SHG-44; SRB assay; mean ± s.d., n = 3
The meaning of pIC50 here: minus log10 of the concentration in molar units.

Worked cases, pIC50 given:
| COMPOUND | NUMERIC_RESULT |
| --- | --- |
| COc1cccc2c1C(=O)c1c(O)c3c(c(O)c1C2=O)C[C@@](O)(C(=O)CO)C[C@@H]3O[C@H]1C[C@H](N)[C@H](O)[C@H](C)O1 [DOX, Doxorubicin, reference compound] | 5.60 |
| Cc1cc(O)c2c(c1)C(=O)c1cccc(O)c1C2=O [Compound 5, chrysophanol] | 5.52 |
| Cc1cc(=O)c2c(CC(=O)C[C@@H](O)CC(=O)O)cccc2o1 [Compound 2] | 4.59 |
| O=C(O)c1cc(CO)c2c(c1)C(=O)c1cccc(O)c1C2=O [Compound 1] | 5.09 |

Proceed to the following item.
Any idea what its pIC50 is? The compound is Cc1c(C(=O)O)c(O)cc2c1C(=O)c1c(O)cccc1C2=O [Compound 6]
4.44

---

ASSAY_OVERVIEW: SRB cytotoxicity assay, normal human astrocytes
Type: cell-based
REPORTED_CONDITIONS: normal human astrocytes (HA), mean ± s.d., n = 3
MEASURED_PARAMETER: CC50

| COMPOUND | CC50 |
| --- | --- |
| COc1cccc2c1C(=O)c1c(O)c3c(c(O)c1C2=O)C[C@@](O)(C(=O)CO)C[C@@H]3O[C@H]1C[C@H](N)[C@H](O)[C@H](C)O1 [DOX, Doxorubicin, reference compound] | 8.7 µM |

Any idea what its CC50 is? The compound is Cc1cc(=O)c2c(CC(=O)C[C@@H](O)CC(=O)O)cccc2o1 [Compound 2]
> 100 µM

Any idea what its CC50 is? The compound is O=C(O)c1cc(CO)c2c(c1)C(=O)c1cccc(O)c1C2=O [Compound 1]
> 100 µM
